# test-target: human GPR40 receptor (Homo sapiens (Human), UniProt O14842)
# Sequence (O14842 whole entry): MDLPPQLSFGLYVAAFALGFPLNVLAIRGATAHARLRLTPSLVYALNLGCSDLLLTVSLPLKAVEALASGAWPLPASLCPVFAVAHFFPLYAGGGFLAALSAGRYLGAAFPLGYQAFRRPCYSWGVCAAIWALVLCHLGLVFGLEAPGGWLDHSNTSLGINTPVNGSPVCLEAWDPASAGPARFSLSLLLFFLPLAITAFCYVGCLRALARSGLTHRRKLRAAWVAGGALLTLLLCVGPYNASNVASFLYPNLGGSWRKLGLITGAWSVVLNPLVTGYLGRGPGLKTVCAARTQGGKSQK
# assay-info: IP1 accumulation measurements using the IPOne assay system
# Assay type: cell-based
# measurement-setup: 1321N1 cells stably expressing human GPR40, 1 h stimulation; read-out: EC50
pEC50: −log10 of the molar value.
Consider the following compounds and their measured pEC50 readings.
measured-endpoint: pEC50

INSERT INTO measurements (compound, reading) VALUES
  ('Cc1cc(C(=O)N(C)C)cc(C)c1-c1ccc(F)c2c1CC[C@H]2Nc1ccc([C@H]2C[C@@H]2C(=O)O)nc1', 6.83),
  ('Cc1cc(OCCC(C)(C)O)cc(C)c1-c1cccc2c1CC[C@H]2Nc1ccc([C@H]2C[C@@H]2C(=O)O)nc1', 8.30),
  ('Cc1cc(O[C@@H]2COC[C@H]2O)cc(C)c1-c1ccc(F)c2c1CC[C@H]2Nc1ccc([C@H]2C[C@@H]2C(=O)O)nc1', 7.46),
  ('Cc1cc(O[C@@H]2CCOC2)cc(C)c1-c1ccc(F)c2c1CC[C@H]2Nc1ccc([C@H]2C[C@@H]2C(=O)O)nc1', 8.00),
  ('Cc1cc(OCC2(O)CCOCC2)cc(C)c1-c1ccc(F)c2c1CC[C@H]2Nc1ccc([C@H]2C[C@@H]2C(=O)O)nc1', 7.72),
  ('Cc1cc(CO)cc(C)c1-c1ccc(F)c2c1CC[C@H]2Nc1ccc([C@H]2C[C@@H]2C(=O)O)nc1', 7.60),
  ('Cc1cc(OCC(C)(C)O)cc(C)c1-c1ccc(F)c2c1CC[C@H]2Nc1ccc([C@H]2C[C@@H]2C(=O)O)nc1', 8.00),
  ('Cc1cc(OCCCS(C)(=O)=O)cc(C)c1-c1ccc(F)c2c1CC[C@H]2Nc1ccc([C@H]2C[C@@H]2C(=O)O)nc1', 8.15),
  ('N#CC1(c2ccccc2-c2ccc(F)c3c2CC[C@H]3Nc2ccc([C@H]3C[C@@H]3C(=O)O)nc2)CC1 (mixture of isomers)', 6.46),
  ('Cc1cc(C(=O)O)cc(C)c1-c1ccc(F)c2c1CC[C@H]2Nc1ccc([C@H]2C[C@@H]2C(=O)O)nc1', 6.18),
  ('Cc1cc(-c2ccnn2C)cc(C)c1-c1ccc(F)c2c1CC[C@H]2Nc1ccc([C@H]2C[C@@H]2C(=O)O)nc1', 7.92),
  ('CC(C)c1ccccc1-c1ccc(F)c2c1CC[C@H]2Nc1ccc([C@H]2C[C@@H]2C(=O)O)nc1', 7.82),
  ('Cc1cc(OCCC(C)(C)O)cc(C)c1-c1ccc(F)c2c1CC[C@H]2Nc1ccc([C@@H]2C[C@H]2C(=O)O)nc1', 6.97),
  ('Cc1nnc(-c2ccc(-c3cccc4c3CC[C@H]4Nc3ccc([C@H]4C[C@@H]4C(=O)O)nc3)cc2)o1', 6.84);

---

Consider the following molecules and their measured IC50 readings.
# test-target: UniProt P10632
# Sequence (P10632 whole entry): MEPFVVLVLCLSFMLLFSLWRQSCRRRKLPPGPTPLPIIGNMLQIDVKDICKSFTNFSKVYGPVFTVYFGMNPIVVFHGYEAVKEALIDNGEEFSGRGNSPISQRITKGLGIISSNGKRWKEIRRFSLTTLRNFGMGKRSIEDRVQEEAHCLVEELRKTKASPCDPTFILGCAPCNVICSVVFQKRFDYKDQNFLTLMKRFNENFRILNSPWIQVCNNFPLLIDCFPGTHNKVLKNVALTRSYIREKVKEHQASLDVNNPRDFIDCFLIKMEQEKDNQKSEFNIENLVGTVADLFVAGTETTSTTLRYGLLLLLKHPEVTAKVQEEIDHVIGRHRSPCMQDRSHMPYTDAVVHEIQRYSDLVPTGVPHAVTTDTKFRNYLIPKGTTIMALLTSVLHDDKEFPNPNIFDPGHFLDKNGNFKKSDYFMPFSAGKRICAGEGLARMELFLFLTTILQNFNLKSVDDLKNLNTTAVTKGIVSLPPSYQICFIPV
# assay-info: Inhibition of CYP-2C8 (amodiaquine deethylation, human liver microsomes)
# Format: in vitro ADME
# measurement-setup: amodiaquine 1 μM, 37° C.
measured-endpoint: IC50 (µM)

INSERT INTO assay_data (molecule, inequality_symbol, reading) VALUES
  ('Cc1cc(-c2ccn(C)c(=O)c2)cc(C)c1-c1ccc(F)c2c1CC[C@H]2Nc1ccc([C@H]2C[C@@H]2C(=O)O)nc1 [Example 29]', '=', 14),
  ('O=C(O)[C@H]1C[C@@H]1c1ccc(N[C@@H]2CCc3c(-c4ccccc4C(F)(F)F)ccc(F)c32)cn1 [Example 31]', '=', 15),
  ('CC(C)c1ccccc1-c1ccc(F)c2c1CC[C@H]2Nc1ccc([C@H]2C[C@@H]2C(=O)O)nc1 [Example 36]', '=', 10),
  ('Cc1cc(C(=O)N(C)C)cc(C)c1-c1ccc(F)c2c1CC[C@H]2Nc1ccc([C@H]2C[C@@H]2C(=O)O)nc1 [Example 39]', '>', 50);
